# TGT: Bcl-2-like protein 1 (Homo sapiens) (UniProt Q07817)
# Sequence (Q07817 whole entry): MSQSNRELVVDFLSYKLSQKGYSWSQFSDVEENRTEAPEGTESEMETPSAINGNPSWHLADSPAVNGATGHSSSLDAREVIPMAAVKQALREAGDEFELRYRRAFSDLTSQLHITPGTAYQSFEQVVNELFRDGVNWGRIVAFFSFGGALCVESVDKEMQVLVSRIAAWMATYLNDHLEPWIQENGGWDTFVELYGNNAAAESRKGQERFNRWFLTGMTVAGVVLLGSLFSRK
# ASSAY_NOTES: Inhibition of Bcl-xL at 200 uM by 1D 1H NMR binding assay
Activity calls are given as the source filed them. No cut-off for these calls is given here.
Possible outcomes: True for active, False for inactive

# COMPOUND, CLASS_NAME
records = [
    ("Cc1cc2c(C(=O)NC(C)c3ccc(Cl)cc3)c(O)c(O)cc2c(O)c1-c1c(C)cc2c(C(=O)NC(C)c3ccc(Cl)cc3)c(O)c(O)cc2c1O (configuration not stated)", "True"),
    ("Cc1cc2c(C(=O)Nc3ccccc3)c(O)c(O)cc2c(O)c1-c1c(C)cc2c(C(=O)Nc3ccccc3)c(O)c(O)cc2c1O", "True"),
    ("Cc1cc2c(C(=O)NCCc3ccccc3)c(O)c(O)cc2c(O)c1-c1c(C)cc2c(C(=O)NCCc3ccccc3)c(O)c(O)cc2c1O", "True"),
    ("Cc1cc2c(C(=O)NC3CCCC3)c(O)c(O)cc2c(O)c1-c1c(C)cc2c(C(=O)NC3CCCC3)c(O)c(O)cc2c1O", "True"),
    ("Cc1cccc(CNC(=O)c2c(O)c(O)cc3c(O)c(-c4c(C)cc5c(C(=O)NCc6cccc(C)c6)c(O)c(O)cc5c4O)c(C)cc23)c1", "True"),
    ("Cc1cc2c(CC3CCCC3)c(O)c(O)cc2c(O)c1-c1c(C)cc2c(CC3CCCC3)c(O)c(O)cc2c1O", "True"),
    ("Cc1cc2c(C(=O)O)c(O)c(O)cc2c(O)c1-c1c(C)cc2c(C(=O)O)c(O)c(O)cc2c1O", "False"),
]
